- Tested on: melanoma A375 cells
- ASSAY: CCK-8 cytotoxicity, melanoma A375 cells
- Type: cell-based
- ASSAY_SETUP: human, 48 h
pIC50: −log10 of the molar value. Peptide text beside a SMILES is read from it.

- COMPOUND: "COc1ccc2c(c1)C(=O)c1c(O)c3c(c(O)c1C2=O)C[C@@](O)(C(=O)COC(=O)CCC(=O)N[C@@H](CC(C)C)C(=O)N1CCC[C@H]1C(=O)N[C@@H](CC(C)C)C(=O)N[C@H](C(=O)N1CCC[C@H]1C(=O)N[C@@H](CC(C)C)C(=O)N1CCC[C@H]1C(=O)O)[C@@H](C)O)C[C@@H]3OC1CC(N)C(O)C(C)O1 (stereo partly shown) [DOX-OH-P7] (HELM PEPTIDE1{[COc1ccc2c(c1)C(=O)c1c(O)c3c(c(O)c1C2=O)C[C@@](O)(C(=O)COC(=O)CCC(=O)[*:2])C[C@@H]3OC1CC(N)C(O)C(C)O1].L.P.L.T.P.L.P}$$$$V2.0)"
  pIC50: 7.55

---

- Test system: Lung adenocarcinoma A549 cells
- ASSAY: CCK-8 cytotoxicity, lung adenocarcinoma A549 cells
- Assay type: cell-based
- ASSAY_SETUP: human, 48 h
Peptide text beside a SMILES is read from it.

- MOLECULE: "COc1ccc2c(c1)C(=O)c1c(O)c3c(c(O)c1C2=O)C[C@@](O)(C(=O)COC(=O)CCC(=O)N[C@@H](CC(C)C)C(=O)N1CCC[C@H]1C(=O)N[C@@H](CC(C)C)C(=O)N[C@H](C(=O)N1CCC[C@H]1C(=O)N[C@@H](CC(C)C)C(=O)N1CCC[C@H]1C(=O)O)[C@@H](C)O)C[C@@H]3OC1CC(N)C(O)C(C)O1 (stereo partly shown) [DOX-OH-P7] (HELM PEPTIDE1{[COc1ccc2c(c1)C(=O)c1c(O)c3c(c(O)c1C2=O)C[C@@](O)(C(=O)COC(=O)CCC(=O)[*:2])C[C@@H]3OC1CC(N)C(O)C(C)O1].L.P.L.T.P.L.P}$$$$V2.0)"
  IC50: "6.2 nM"

---

- Tested on: breast cancer MCF-7S cells
- ASSAY: CCK-8 cytotoxicity, breast cancer MCF-7S cells
- Type: cell-based
- ASSAY_SETUP: human, 48 h
- Description: Lung adenocarcinoma A549, breast cancer MCF-7S and melanoma A375 cells were diluted respectively to 3×10^4 cells/ml and pipetted to 96-well plate with 100 μl in each well. Twenty-four hours later, 5, 20, 80 or 320 nM DTX-P7, Paclitaxel-heptapeptide conjugate (PTX-P7), Doxorubicin-NH2-heptapeptide conjugate (DOX-P7) and Doxorubicin-OH-heptapeptide conjugate (DOX-OH-P7) were added to the wells and incubated for 48 h. […]
pIC50: −log10 of the molar value. Peptide text beside a SMILES is read from it.

- COMPOUND: "COc1ccc2c(c1)C(=O)c1c(O)c3c(c(O)c1C2=O)C[C@@](O)(C(=O)COC(=O)CCC(=O)N[C@@H](CC(C)C)C(=O)N1CCC[C@H]1C(=O)N[C@@H](CC(C)C)C(=O)N[C@H](C(=O)N1CCC[C@H]1C(=O)N[C@@H](CC(C)C)C(=O)N1CCC[C@H]1C(=O)O)[C@@H](C)O)C[C@@H]3OC1CC(N)C(O)C(C)O1 (stereo partly shown) [DOX-OH-P7] (HELM PEPTIDE1{[COc1ccc2c(c1)C(=O)c1c(O)c3c(c(O)c1C2=O)C[C@@](O)(C(=O)COC(=O)CCC(=O)[*:2])C[C@@H]3OC1CC(N)C(O)C(C)O1].L.P.L.T.P.L.P}$$$$V2.0)"
  pIC50: 7.74
